Assay: yeast display, Sf9 membrane polyspecificity reagent, FACS + sequencing; frameworks hold sequencing errors
measured-metric: polyreactivity (PSR sort gate)

1) QDQLVESGGGLVQAGGSLRLSCAASGSNLYRNAMGWSRQAPGKERELVAAITSRGGSTYADSVTGRFTISRDNAKNTVYLQMNSLKPEDTAVYYCAKGYLYRRPTVTHGYWGQGTQVTVSS    low polyreactivity
2) QVQLVESGGGLVQAGGSLRLSCAASGRTFGLNAMGWYRQAPGKERELVAAITSGGSTYYADSVKGRFTITRDNAKTTVYLQMNSLKPEDTAVYYCAAAYFDFWGWLHDYWGQGTQVTVSS    low polyreactivity
